pIC50: −log10 of the molar value.
cGMP-inhibited cAMP PDE (Oryctolagus cuniculus): reported pIC50 for various molecules.
Sequence (G1ST54 1-1128): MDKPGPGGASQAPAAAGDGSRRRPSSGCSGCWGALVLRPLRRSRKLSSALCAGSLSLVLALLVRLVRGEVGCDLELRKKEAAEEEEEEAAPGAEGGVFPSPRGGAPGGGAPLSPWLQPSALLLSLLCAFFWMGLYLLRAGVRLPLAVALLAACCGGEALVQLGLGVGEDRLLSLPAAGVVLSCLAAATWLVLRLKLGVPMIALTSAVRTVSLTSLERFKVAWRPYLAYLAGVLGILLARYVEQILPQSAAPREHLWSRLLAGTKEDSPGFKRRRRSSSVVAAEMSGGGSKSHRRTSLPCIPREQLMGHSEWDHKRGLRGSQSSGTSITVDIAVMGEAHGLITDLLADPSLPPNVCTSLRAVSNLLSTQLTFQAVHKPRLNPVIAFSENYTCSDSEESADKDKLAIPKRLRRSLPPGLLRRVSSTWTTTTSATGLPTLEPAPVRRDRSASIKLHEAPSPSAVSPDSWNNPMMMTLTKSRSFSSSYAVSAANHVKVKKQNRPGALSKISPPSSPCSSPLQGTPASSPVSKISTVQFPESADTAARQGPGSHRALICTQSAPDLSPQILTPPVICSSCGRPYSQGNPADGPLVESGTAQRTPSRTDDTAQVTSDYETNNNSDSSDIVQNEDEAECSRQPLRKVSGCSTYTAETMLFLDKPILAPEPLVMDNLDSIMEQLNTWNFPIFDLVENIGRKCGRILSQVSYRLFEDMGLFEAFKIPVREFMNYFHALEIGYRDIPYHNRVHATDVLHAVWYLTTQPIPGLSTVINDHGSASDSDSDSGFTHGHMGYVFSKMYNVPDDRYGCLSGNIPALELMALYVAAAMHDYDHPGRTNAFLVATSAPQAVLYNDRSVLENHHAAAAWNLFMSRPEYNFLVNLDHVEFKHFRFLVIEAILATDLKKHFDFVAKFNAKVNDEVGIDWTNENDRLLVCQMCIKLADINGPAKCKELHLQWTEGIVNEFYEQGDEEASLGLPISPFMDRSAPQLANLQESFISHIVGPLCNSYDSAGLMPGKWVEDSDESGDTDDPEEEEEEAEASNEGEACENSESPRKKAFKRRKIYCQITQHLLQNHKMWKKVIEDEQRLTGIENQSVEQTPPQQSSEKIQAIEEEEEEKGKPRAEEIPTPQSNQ

MOLECULE: CCCc1ccnc2c(=O)[nH]c(-c3cc(S(=O)(=O)N4CCC(C(=O)OCC)CC4)ccc3OCC)nc12 [Example 4]
VALUE PREFIX: =
pIC50: 5.12
//
MOLECULE: CCCc1ccnc2c(=O)[nH]c(-c3cc(NS(=O)(=O)c4cccnc4)ccc3OCC)nc12 [Example 12A]
VALUE PREFIX: =
pIC50: 5.34
//
MOLECULE: CCCc1ccnc2c(=O)[nH]c(-c3cc(S(=O)(=O)N4CCN(CCO)CC4)ccc3OCC)nc12 [Example 7]
VALUE PREFIX: =
pIC50: 4.96
//
MOLECULE: CCCc1ccnc2c(=O)[nH]c(-c3cc(S(=O)(=O)N4CCN(C)CC4)ccc3OCC)nc12 [Example 2]
VALUE PREFIX: =
pIC50: 4.89
//
MOLECULE: CCCc1ccnc2c(=O)[nH]c(-c3cc(S(=O)(=O)N(C)CCC(=O)OCC)ccc3OCC)nc12 [Example 5]
VALUE PREFIX: =
pIC50: 5.08
//
MOLECULE: CCOc1ccc(S(=O)(=O)N2CCN(C)CC2)cc1-c1nc2c(C#N)ccnc2c(=O)[nH]1 [Example 24]
VALUE PREFIX: <
pIC50: 4.00

* * *

TARGET OR SYSTEM: calcium/calmodulin (Ca/CAM)-independent cGMP PDE (Oryctolagus cuniculus, UniProt G1SX67)
Construct: The PDE enzymes are isolated from rabbit platelets and rat kidney
EXPERIMENT NOTES: PDE inhibition: Ca/CAM-independent cGMP PDE from rabbit platelets
CONDITION DESCRIPTION: Ca/CAM-independent cGMP PDE, rabbit platelets, in vitro
Field: label. Allowed values: satisfied (IC50 < 20 nM) or not satisfied (IC50 >= 20 nM).

MOLECULE: CCCc1ccnc2c(=O)[nH]c(-c3cc(S(=O)(=O)N(C)CCC(=O)OCC)ccc3OCC)nc12
ASSIGNED LABEL: satisfied
//
MOLECULE: CCCc1ccnc2c(=O)[nH]c(-c3cc(S(=O)(=O)NCCN4CCOCC4)ccc3OCC)nc12
ASSIGNED LABEL: not satisfied
//
MOLECULE: CCCc1ccnc2c(=O)[nH]c(-c3cc(NS(=O)(=O)c4cccnc4)ccc3OCC)nc12 [Example 12A]
ASSIGNED LABEL: satisfied
//
MOLECULE: CCCc1ccnc2c(=O)[nH]c(-c3cc(S(=O)(=O)N4CCN(C)CC4)ccc3OCC)nc12
ASSIGNED LABEL: not satisfied
//
MOLECULE: CCCc1ccnc2c(=O)[nH]c(-c3cc(S(=O)(=O)N4CCC(C(=O)OCC)CC4)ccc3OCC)nc12
ASSIGNED LABEL: satisfied
//
MOLECULE: CCCc1ccnc2c(=O)[nH]c(-c3cc(S(=O)(=O)N4CCC(C(=O)O)CC4)ccc3OCC)nc12
ASSIGNED LABEL: satisfied
//
MOLECULE: CCOc1ccc(S(=O)(=O)N2CCN(C)CC2)cc1-c1nc2c(C#N)ccnc2c(=O)[nH]1
ASSIGNED LABEL: not satisfied
//
MOLECULE: CCCc1ccnc2c(=O)[nH]c(-c3cc(S(=O)(=O)N4CCN(CCO)CC4)ccc3OCC)nc12
ASSIGNED LABEL: satisfied

Each recorded value in this set is attributed to patent US5591742A.
